Origin of measurements: patent US20130345129A1

Target: T1, mouse GLP-1 receptor (mouse, UniProt O35659 22-463)
T1 sequence (looked up): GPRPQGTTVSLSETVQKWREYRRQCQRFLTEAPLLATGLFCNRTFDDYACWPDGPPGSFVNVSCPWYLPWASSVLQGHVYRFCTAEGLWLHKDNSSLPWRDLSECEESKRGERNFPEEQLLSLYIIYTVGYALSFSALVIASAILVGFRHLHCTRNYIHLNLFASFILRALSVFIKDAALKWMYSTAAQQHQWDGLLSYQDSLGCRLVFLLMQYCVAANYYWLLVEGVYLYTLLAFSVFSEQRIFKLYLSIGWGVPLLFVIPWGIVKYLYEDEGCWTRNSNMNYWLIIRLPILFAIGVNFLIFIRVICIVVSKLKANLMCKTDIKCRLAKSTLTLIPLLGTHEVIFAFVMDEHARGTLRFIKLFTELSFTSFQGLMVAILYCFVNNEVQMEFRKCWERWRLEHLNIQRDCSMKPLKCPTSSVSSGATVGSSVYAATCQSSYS
Assay: cell-based or functional assay
No end group written: not given here.
Each record here notes measured Relative Activity (cAMP synthesis, EC50 relative to GLP-1 = 1).

Reference set (3 entries):
HAEGTC(disialo oligosaccharide)TSDVSSYLEGQAAKEFIAWLVKGRG [12Cys GLP-1-disialo]	< 0.1 relative (GLP-1 = 1)
CHAEGTFTSDVSSYLEGQAAKEFIAWLVKGRG (disialo oligosaccharide chain added Cys at position 6 (added before 7His; chain attached to Cys with bromoacetamidyl disialo oligosaccharide)) [6Cys GLP-1-disialo]	< 0.1 relative (GLP-1 = 1)
HAC(disialo oligosaccharide)GTFTSDVSSYLEGQAAKEFIAWLVKGRG [9Cys GLP-1-disialo]	< 0.1 relative (GLP-1 = 1)

Entry under review: HAEGTFTSDVSSYLEGQAAKEFIC(disialo oligosaccharide)WLVKGRG [30Cys GLP-1-disialo] . Reported Relative Activity (cAMP synthesis, EC50 relative to GLP-1 = 1)? 0.6 relative (GLP-1 = 1)

Entry under review: HAEGTFTSDVSSYLEGQAAKC(disialo oligosaccharide)FIAWLVKGRG [27Cys GLP-1-disialo] . Reported Relative Activity (cAMP synthesis, EC50 relative to GLP-1 = 1)? 0.2 relative (GLP-1 = 1)

Entry under review: HAEGTFTSDVSSYC(disialo oligosaccharide)EGQAAKEFIAWLVKGRG [20Cys GLP-1-disialo] . Reported Relative Activity (cAMP synthesis, EC50 relative to GLP-1 = 1)? < 0.1 relative (GLP-1 = 1)
